Target: T1, LIN28A H148A (mouse, UniProt Q8K3Y3 1-209, H148A)
T1 sequence: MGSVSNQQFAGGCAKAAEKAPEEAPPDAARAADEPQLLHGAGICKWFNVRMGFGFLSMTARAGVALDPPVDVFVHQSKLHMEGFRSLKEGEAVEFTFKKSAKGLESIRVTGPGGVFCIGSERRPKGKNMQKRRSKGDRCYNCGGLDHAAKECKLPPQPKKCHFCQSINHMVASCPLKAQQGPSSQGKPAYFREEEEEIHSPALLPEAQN
Test: SPR
measurement-type: Kd (nM)
Answers are plain numbers, in nM.

[in] Using the record for GGGGUAGUGAUUUUACCCUGUUUAGGAGAU (structured_RNA) [preE-let-7f-1 biotin] , state its measured Kd.
[out] 276
